- measurementTarget: Coagulation factor XI (Homo sapiens)
- protocol: factor XIa enzyme inhibition, large library – biochemical, 1536-well, primary screen (AID 798);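 further: fluorescence of freed AMC excited at 355 nm; 0% = enzyme without compound and 100% = no enzyme blank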
- testSettings: purified FXIa, Boc-Glu-Ala-Arg-AMC fluorogenic substrate; at 5 µM; stronger effect = higher value
Screen size: about 220,000 compounds; about 300 (0.14%) were called active. Shown is part of a subset that was picked to be rich in actives. Where a SMILES comes first, the peptide text is derived from it. The star is where a group is joined. OPac = O=C(CO*)c1ccccc1; Bz = O=C(c1ccccc1)*
Item-by-item account of inhibition
Note: unit % is implicit; provide only the numeric part.

molecule | inhibition / %
Cc1ccccc1C(=O)Nc1ccc(N2CCCCCC2)cc1 | -3.76

Query :: Recorded inhibition of Cc1nnc(NCCO)c2ccccc12 , please.
Result :: 6.13

Query :: Name the reported inhibition value associated with the molecule CN(c1ccccn1)c1ncnc2[nH]ncc12
Result :: -2.65

Query :: I would be grateful if you could share the reported inhibition for CCOc1ccc(/C=C2\SC(=S)N(NC(=O)c3ccncc3)C2=O)cc1OC .
Result :: 6.9

Query :: Returns the measured inhibition for the input molecule. Input: CCCCCC(=O)Nc1ccc(S(=O)(=O)Nc2ccc(Cl)nn2)cc1
Result :: -12.1

Query :: Which inhibition value belongs to O=C(CNC(=O)c1ccccc1)NCC(=O)OCC(=O)c1ccccc1 (Bz-Gly-Gly-OPac) ?
Result :: -1.35

Query :: Form field: reported inhibition of N#C/C(=C/c1cccc([N+](=O)[O-])c1)c1nnc2n1CCCCC2
Result :: 0.95

* * *

- measurementTarget: Coagulation factor XI (Homo sapiens)
- protocol: factor XIa enzyme inhibition, large library – biochemical, 1536-well, primary screen (AID 798)
- testSettings: purified FXIa, Boc-Glu-Ala-Arg-AMC fluorogenic substrate; at 5 µM; stronger effect = higher value
The whole screen tested about 220,000 compounds, of which about 300 (0.14%) were called active. The sample as a whole holds a higher share of actives than the screen did.
Each item that follows carries a reported inhibition.

Use the examples below as a reference point.
molecule | inhibition
CCOc1ccc(Oc2nc(C)cc(OC)n2)nn1 | 4.79% (inactive)
CCCCOc1ccc(C(=O)N/C(=C/C=C/c2ccccc2)C(=O)N2CCOCC2)cc1 | 5.26% (inactive)
CCC(C(=O)Nc1ccc2c(c1)OCCO2)c1ccccc1 (stereo unspecified) | -1.53% (inactive)

Query :: Any idea what its inhibition is? The molecule is Cc1ccc(Sc2ccncc2S(N)(=O)=O)cc1
Result :: 5.95% (inactive)

Query :: Param item = COc1cccc(-n2nc(C(=O)N3CCN(Cc4ccccc4)CC3)c3ccccc3c2=O)c1 ; retrieve measured inhibition.
Result :: -0.09% (inactive)

Query :: Sample CCOc1ccc(Br)cc1S(=O)(=O)N1CCC(C(=O)O)CC1 — what was its inhibition?
Result :: -8.82% (inactive)

Query :: Need inhibition of Cn1c(SCC(=O)N2CCOCC2)nnc1-c1ccc2ncccc2c1 , thanks.
Result :: 4.39% (inactive)

Query :: Name the recorded inhibition for Cc1nc2cc(NC(=O)NC3CC3)ccc2n1C .
Result :: -5.28% (inactive)

Query :: Any idea what its inhibition is? The molecule is CC(C)n1c(O)c(N=Nc2ccccn2)c2ccccc21
Result :: 0.21% (inactive)

Query :: Suppose we examine the molecule Cc1ccc(C(=O)COC(=O)c2cccc(N3C(=O)c4c(C)nc5ccccc5c4C3=O)c2)cc1C ; what inhibition value has been reported?
Result :: 8.56% (inactive)

Query :: Name the recorded inhibition for Oc1ccc2ccccc2c1N=Nc1nccs1 .
Result :: 1.08% (inactive)

Query :: What measured inhibition goes with COc1ccc(CCNC(=O)CSc2nc(-c3ccc(OC)c(OC)c3)ccc2C#N)cc1 ?
Result :: -0.12% (inactive)

Query :: Value lookup for inhibition; key = CC12CN3CCN(CC(C3)/C1=N\NC(=O)c1ccccc1N)C2
Result :: -0.67% (inactive)

Query :: Entry under review: COc1ccc(SC[C@H](Cc2ccccc2)N2CCN(CCc3ccccc3)CCC2=O)cc1 . Reported inhibition?
Result :: 0.67% (inactive)

Query :: Using the record for COc1ccc(CN(C(=O)c2cccs2)c2nccs2)cc1OC , report its inhibition.
Result :: 0.51% (inactive)

Query :: State the recorded inhibition for this entry: CC(NC(=S)Nc1ccccc1)C1COc2ccccc2O1 (stereo unspecified)
Result :: 3.5% (inactive)

Query :: inhibition lookup needed for Cc1ccc(NC(=O)C2CCCN(S(=O)(=O)c3c(C)noc3C)C2)c(C)c1 (stereo unspecified) , thanks.
Result :: -3.38% (inactive)

Query :: Given the entry COc1nc(NC2CCCCC2)nc(N2CCCCCC2)n1 , report its measured inhibition.
Result :: 5.12% (inactive)

Query :: Data request, read-out inhibition, for CC(C)C(O)C1CCN(Cc2nc(Cc3ccccc3Cl)no2)CC1 (stereo unspecified)
Result :: -1.58% (inactive)

Query :: // inhibition lookup, key: Cc1c(C(=O)NC(=S)NCc2cccnc2)oc2ccccc12
Result :: -1.74% (inactive)

Query :: Which inhibition value belongs to O=C(COc1ccccc1[N+](=O)[O-])N/N=C/c1ccc[nH]1 ?
Result :: 2.13% (inactive)

* * *

- measurementTarget: Coagulation factor XI (Homo sapiens) (UniProt P03951)
- Sequence (P03951 19-387 limits assumed): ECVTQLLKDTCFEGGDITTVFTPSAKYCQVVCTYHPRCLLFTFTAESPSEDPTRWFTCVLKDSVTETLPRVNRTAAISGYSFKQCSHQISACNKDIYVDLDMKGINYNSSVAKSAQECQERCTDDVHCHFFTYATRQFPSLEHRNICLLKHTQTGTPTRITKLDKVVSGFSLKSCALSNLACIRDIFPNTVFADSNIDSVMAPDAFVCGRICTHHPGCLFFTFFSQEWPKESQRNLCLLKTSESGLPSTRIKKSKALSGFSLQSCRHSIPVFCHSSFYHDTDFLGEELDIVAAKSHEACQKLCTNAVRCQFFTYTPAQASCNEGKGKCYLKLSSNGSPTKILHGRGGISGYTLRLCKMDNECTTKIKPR
- Sequence (P03951 388-625 limits assumed): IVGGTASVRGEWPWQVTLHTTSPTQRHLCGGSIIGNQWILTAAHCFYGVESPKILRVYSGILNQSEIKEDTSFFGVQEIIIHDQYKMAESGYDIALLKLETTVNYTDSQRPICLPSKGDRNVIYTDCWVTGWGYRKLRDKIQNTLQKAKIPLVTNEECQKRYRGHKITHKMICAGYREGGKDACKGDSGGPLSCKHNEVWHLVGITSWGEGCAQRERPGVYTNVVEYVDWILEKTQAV
- protocol: factor XIa enzyme inhibition, large library – biochemical, 1536-well, primary screen (AID 798);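 further: fluorescence of freed AMC excited at 355 nm; 0% = enzyme without compound and 100% = no enzyme blank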
- testSettings: purified FXIa, Boc-Glu-Ala-Arg-AMC fluorogenic substrate; at 5 µM
Out of some 220,000 compounds screened, about 300 (0.14%) were called active.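 The calls were made as follows: active = inhibition of at least 40%; inactive = inhibition below 40%.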 The sample holds actives, similar compounds and a random draw of the others, so the mix is not that of the screen.
Please state which outcome applies, choosing from active, inactive

molecule | assignedLabel
CC(C(=O)NCC1CCCCC1)N(C)Cc1cccc(Cl)c1 (stereo unspecified) | inactive
Cc1noc(C)c1S(=O)(=O)N1CCCC(C(=O)Nc2nccs2)C1 (stereo unspecified) | inactive
CCOC(=O)C1CCN(C(=O)Nc2cccc(OC)c2)CC1 | inactive
O=C(NCc1cccs1)c1cc(-c2ccccn2)nc2ccc(Br)cc12 | inactive
O=c1nc(N/N=C/c2ccco2)cn[nH]1 | inactive

Query :: Hi team, can someone confirm the assay call for COc1ccc(/C=N/n2c(C)cc(C)cc2=O)cc1 ?
Result :: active

* * *

- measurementTarget: Coagulation factor XI (Homo sapiens) (UniProt P03951)
- protocol: factor XIa enzyme inhibition, large library – biochemical, 1536-well, primary screen (AID 798);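 further: fluorescence of freed AMC excited at 355 nm; 0% = enzyme without compound and 100% = no enzyme blank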
- testSettings: purified FXIa, Boc-Glu-Ala-Arg-AMC fluorogenic substrate; at 5 µM; stronger effect = higher value
Out of some 220,000 compounds screened, about 300 (0.14%) were called active. This excerpt belongs to a sample that is enriched for actives.
endpointLabel: inhibition (%)
Just the number please, in %, no unit attached.

Examples with answers:
compound | unit | inhibition
CN(C)/N=C/c1cc(Cl)cc([N+](=O)[O-])c1O | % | 2.99
COCCn1c(N)c(N(Cc2ccccc2)C(=O)C2CCCCC2)c(=O)[nH]c1=O | % | -2.52
C/C(Cc1ccccc1)=N\NC(=O)CNC(=O)c1cccc(Br)c1 | % | 9.13
C/C(Cc1ccccc1)=N\NC(=O)CNC(=O)c1ccc2c(c1)OCCO2 | % | -2.1
CC(NC(=S)NNS(=O)(=O)c1ccc(C(C)(C)C)cc1)c1ccccc1 (stereo not given) | % | -2.57

Query :: For the compound shown here, O=C(NCc1ccc(F)cc1)C1CCC(CNc2c(N3CCOCC3)c(=O)c2=O)CC1 (stereo not given) , give the reported inhibition.
Result :: 1.9

Query :: Looking for the measured inhibition of O=C(Cn1cc(C(F)(F)F)ccc1=O)N/N=C/c1ccc(Cl)cc1Cl , can you help?
Result :: 6.17

Query :: inhibition lookup needed for Cc1cc(C(=O)OCC(=O)Nc2nnc(C(C)C)s2)c2ccccc2n1 , thanks.
Result :: -3.05

Query :: Bench note: what inhibition did Cc1c(NC(=O)C(=O)N/N=C/c2cccs2)c(=O)n(-c2ccccc2)n1C show?
Result :: -2.28

Query :: Requested field: inhibition. Item: COc1ccccc1-n1c(C)nc2cc(C(=O)NCc3ccc4c(c3)OCO4)ccc21
Result :: 1.71

* * *

The entries below are paired with their reported inhibition.
- measurementTarget: Coagulation factor XI (Homo sapiens)
- protocol: factor XIa enzyme inhibition, large library – biochemical, 1536-well, primary screen (AID 798);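 further: fluorescence of freed AMC excited at 355 nm; 0% = enzyme without compound and 100% = no enzyme blank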
- testSettings: purified FXIa, Boc-Glu-Ala-Arg-AMC fluorogenic substrate; at 5 µM; stronger effect = higher value
The campaign covered roughly 220,000 compounds. About 300 (0.14%) were called active. What follows is part of a selection rich in actives, with near analogues and random picks from the rest.
Please give a number only; it is taken to be in %.

compound | measurementTarget | unit | inhibition
CCOC(=O)N1CCN(Cc2nc3ccc([N+](=O)[O-])cc3c(=O)n2-c2cccc(OC)c2)CC1 | Coagulation factor XI (Homo sapiens) | % | -1.56

Query :: Entry CN(CCc1ccccn1)C(=O)CCC1CCCN(Cc2ccccc2OC(F)F)C1 (stereo not drawn) , system Coagulation factor XI (Homo sapiens): what inhibition was measured?
Result :: -3.18

Query :: GET /values?readout=inhibition&system=Coagulation factor XI (Homo sapiens)&item= CN(CC(=O)Nc1ccc(F)cc1)CC(=O)Nc1ccc(Cl)c(S(=O)(=O)N2CCOCC2)c1
Result :: 0.07

Query :: Hi! What's the reported inhibition for CCc1ccc(S(=O)(=O)Nc2ccc(C)c(NS(C)(=O)=O)c2)cc1 on Coagulation factor XI (Homo sapiens)?
Result :: 1.46

Provenance of the data: PubChem BioAssay AID798
